- assay_details: Metabolic stability in human liver microsome assessed as half life by LC-MS/MS analysis
- Format: ADME
- measurement_conditions: liver microsomes
property_label: half-life (h)
Answers are plain numbers, in h.

Recorded half-life (molecule CC(C)(C)c1cc(NC(=O)Nc2ccc(Oc3ccnc(-c4cnn(CCCCCCC(=O)NO)c4)c3)cc2)on1 ): 1.49

* * *

- assay_details: Metabolic stability in dog liver microsome assessed as half life by LC-MS/MS analysis
- Format: ADME, Canis lupus familiaris
- measurement_conditions: liver microsomes
property_label: half-life (min)
Numbers only, in min.

Recorded half-life (compound CC(C)(C)c1cc(NC(=O)Nc2ccc(Oc3ccnc(-c4cnn(CCCCCCC(=O)NO)c4)c3)cc2)on1 ): 43.6
